Ref: ChEMBL document CHEMBL1811915

Experiment: Inhibition of bovine carbonic anhydrase assessed as formation of p-nitrophenol from p-nitrophenyl acetate substrate after 30 mins by spectrophotometric method
Parameters: species or system Bos taurus
IC50 overview

{"Compound": "CC(=O)Nc1nnc(S(N)(=O)=O)s1 [ACETAZOLAMIDE]", "IC50": "1.13 µmol"}
{"Compound": "CCOC1Oc2ccc(F)cc2C(=O)/C1=C\\Nc1ccc(S(N)(=O)=O)cc1 (stereo unspecified)", "IC50": "4.31 µmol"}
{"Compound": "CCOC1Oc2ccc(Br)cc2C(=O)/C1=C\\Nc1ccc(S(N)(=O)=O)cc1 (stereo unspecified)", "IC50": "16.12 µmol"}
{"Compound": "CCOC1Oc2ccccc2C(=O)/C1=C\\Nc1cccc(S(N)(=O)=O)c1 (stereo unspecified)", "IC50": "17.72 µmol"}
{"Compound": "CCOC1Oc2ccc(F)cc2C(=O)/C1=C\\Nc1cccc(S(N)(=O)=O)c1 (stereo unspecified)", "IC50": "11.37 µmol"}
{"Compound": "CCOC1Oc2c(Br)cc(Br)cc2C(=O)/C1=C\\Nc1ccc(S(N)(=O)=O)cc1 (stereo unspecified)", "IC50": "21.12 µmol"}
{"Compound": "CCOC1Oc2ccc(Br)cc2C(=O)/C1=C\\Nc1cccc(S(N)(=O)=O)c1 (stereo unspecified)", "IC50": "18.27 µmol"}
{"Compound": "CCOC1Oc2ccc(CC)cc2C(=O)/C1=C\\Nc1ccc(S(N)(=O)=O)cc1 (stereo unspecified)", "IC50": "16.63 µmol"}
{"Compound": "CCOC1Oc2ccccc2C(=O)/C1=C\\Nc1ccc(S(N)(=O)=O)cc1 (stereo unspecified)", "IC50": "19.21 µmol"}
{"Compound": "CCOC1Oc2ccc(CC)cc2C(=O)/C1=C\\Nc1cccc(S(N)(=O)=O)c1 (stereo unspecified)", "IC50": "11.71 µmol"}
{"Compound": "CCOC1Oc2c(Br)cc(Br)cc2C(=O)/C1=C\\Nc1cccc(S(N)(=O)=O)c1 (stereo unspecified)", "IC50": "29.12 µmol"}
